biological target: Serine/threonine-protein kinase N2 (Homo sapiens) (UniProt Q16513); conditions: at 10 µM
Sequence (Q16513 whole entry, looked up): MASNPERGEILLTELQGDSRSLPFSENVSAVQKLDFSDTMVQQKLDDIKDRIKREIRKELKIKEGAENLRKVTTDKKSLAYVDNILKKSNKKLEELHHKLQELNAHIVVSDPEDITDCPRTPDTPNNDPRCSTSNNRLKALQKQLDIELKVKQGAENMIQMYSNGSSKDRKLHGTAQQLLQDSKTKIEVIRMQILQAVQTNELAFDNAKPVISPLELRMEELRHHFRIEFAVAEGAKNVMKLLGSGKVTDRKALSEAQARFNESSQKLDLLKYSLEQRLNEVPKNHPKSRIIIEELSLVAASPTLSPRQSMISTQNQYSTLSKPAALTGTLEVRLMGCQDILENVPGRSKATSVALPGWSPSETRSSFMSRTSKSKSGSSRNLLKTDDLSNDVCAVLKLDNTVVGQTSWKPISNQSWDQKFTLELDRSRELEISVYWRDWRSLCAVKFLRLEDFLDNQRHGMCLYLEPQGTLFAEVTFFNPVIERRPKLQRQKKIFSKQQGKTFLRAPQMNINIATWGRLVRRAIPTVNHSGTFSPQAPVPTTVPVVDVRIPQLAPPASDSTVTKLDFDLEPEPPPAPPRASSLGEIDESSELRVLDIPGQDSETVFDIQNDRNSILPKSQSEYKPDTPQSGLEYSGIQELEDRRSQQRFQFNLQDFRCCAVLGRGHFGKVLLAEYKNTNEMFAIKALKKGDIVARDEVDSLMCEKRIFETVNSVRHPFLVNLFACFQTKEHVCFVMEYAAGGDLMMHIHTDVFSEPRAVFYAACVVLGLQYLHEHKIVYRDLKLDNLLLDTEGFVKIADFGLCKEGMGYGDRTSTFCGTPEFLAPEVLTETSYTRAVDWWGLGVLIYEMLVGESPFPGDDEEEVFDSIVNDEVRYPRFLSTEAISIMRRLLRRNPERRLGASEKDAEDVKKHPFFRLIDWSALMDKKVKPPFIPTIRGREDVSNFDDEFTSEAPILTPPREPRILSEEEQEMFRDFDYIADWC
Readout Kind: residual activity (%)
Provide only the numeric value, understood in %.

Example cases with answers are listed next.
1. O=c1cc(N2CCOCC2)oc2c1ccc1ccccc12    98
2. Nc1ncnc2c1c(-c1ccc(Oc3ccccc3)cc1)cn2C1CCCC1    100
3. O=C1Cc2c([nH]c3ccc(Br)cc23)-c2ccccc2N1    26

Task: Please supply the value of reported residual activity for the item CSc1nc(-c2ccc(F)cc2)c(-c2ccnc(NC(C)c3ccccc3)c2)[nH]1 (configuration not stated)
Result: 94

Task: Please supply the value of reported residual activity for the item "CC(C)(C)c1nc2c3ccc(F)cc3c3c(=O)[nH]ccc3c2[nH]1"
Result: 39

Task: Please supply the value of reported residual activity for the item "Nc1ncnc2[nH]nc(Nc3ccc(F)cc3)c12"
Result: 80

Task: Please supply the value of reported residual activity for the item "Nc1nc(Nc2ccc(S(N)(=O)=O)cc2)nn1C(=O)c1c(F)cccc1F"
Result: 32

Task: Please supply the value of reported residual activity for the item "Nc1nccc(-c2c(-c3ccc(F)cc3)ncn2C2CCNCC2)n1"
Result: 82

Task: Please supply the value of reported residual activity for the item "O=C1NC(=O)C(c2c[nH]c3ccccc23)=C1c1c[nH]c2ccccc12"
Result: 37

Task: Please supply the value of reported residual activity for the item "COc1cc2nccc(Oc3ccc(NC(=S)NC(=O)c4ccccc4C)cc3)c2cc1OC"
Result: 88

Task: Please supply the value of reported residual activity for the item "Cn1c2ccccc2c2c3c(c4c5ccccc5n(CCC#N)c4c21)CNC3=O"
Result: 10

Task: Please supply the value of reported residual activity for the item "COc1ccc(CNC(=O)Nc2ncc([N+](=O)[O-])s2)cc1"
Result: 81

Task: Please supply the value of reported residual activity for the item "O=C1Nc2ccc(Cl)cc2/C1=C/c1cc(Cl)c(O)c(Cl)c1"
Result: 94

Task: Please supply the value of reported residual activity for the item "Nc1n[nH]c2nc3ccccc3nc12"
Result: 74

Task: Please supply the value of reported residual activity for the item "O=C(Nc1nc2ccccc2n1CCN1CCOCC1)c1cccc([N+](=O)[O-])c1"
Result: 115

Task: Please supply the value of reported residual activity for the item "O=C(CCCc1ccc(-c2ccccc2F)cc1)Nc1ccc(O)cc1"
Result: 79
